assay: Quantitative High-Throughput drug screen in 47 multiple myeloma cell lines against the NCATS MIPE library collection: KMM1_JCRB cell viability assay (AID 1918960); conditions: KMM1 myeloma viability, CellTiter-Glo ATP luminescence, 48 h; series mostly up to 45.8 µM; note: nearly all actives have a fitted effect of over 30% in size
Records with an inconclusive call do not appear. Calls of active or inactive are those of the source. Calls come from the whole dose curve; as a rule, active = well fitted cell-killing curve with a large enough effect; inconclusive = small, poorly fitted or top-dose-only effect, or effect the other way; inactive = no such curve, though single readings can be large or run the other way.
# valid calls are yes (1) (active), no (0) (inactive); nothing else

Cn1c2ccccc2c2c3c(c4c5ccccc5n(CCC#N)c4c21)CNC3=O	yes (1)
CNC(=O)CN1CCC(Oc2cc3c(Nc4cccc(Cl)c4F)ncnc3cc2OC)CC1	yes (1)

Please let me know the test result on file for Cc1nc2cnc3ccc(C#Cc4cccnc4)cc3c2n1-c1ccc(C(C)(C)C#N)cc1 .
no (0)

Please let me know the test result on file for CC1(C)CCC(c2ccc(Cl)cc2)=C(CN2CCN(c3ccc(C(=O)NS(=O)(=O)c4ccc(N[C@H](CCN5CCOCC5)CSc5ccccc5)c(S(=O)(=O)C(F)(F)F)c4)cc3)CC2)C1 .
yes (1)

Please let me know the test result on file for CCN(CC)CCNC(=O)c1ccc2nc(-c3ccccc3)c(-c3ccc(CN4CCC(n5c(=O)[nH]c6ccccc65)CC4)cc3)nc2c1 .
yes (1)

----------
assay: qHTS of pediatric cancer cell lines to identify multiple opportunities for drug repurposing: Confirmatory screen for BT-37 cells (AID 1347117); settings: BT-37 pediatric cancer cells, viability; series mostly up to 45.9 µM;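 note: viability measured after 48 h of compound exposure; nearly all actives have a fitted effect of over 55% in size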
Records with an inconclusive call do not appear. Calls of active or inactive are those of the source. Calls follow the shape of the dose curve; as a rule, active = well fitted cell-killing curve with a large enough effect; inconclusive = small, poorly fitted or top-dose-only effect; inactive = no such curve, though single readings can be large or run the other way.
# valid calls are active, inactive; nothing else

Check out these entries, answers already filled in.
Cc1cn2c(-c3cn[nH]c3)cnc2c(Nc2ccc(C(=O)N3CCNCC3)cc2F)n1	active
COC(=O)Nc1nc2ccc(C(=O)c3ccc(F)cc3)cc2[nH]1	active
C=CC(=O)Nc1cccc(Oc2nc(Nc3ccc(N4CCN(C)CC4)cc3OC)ncc2Cl)c1	active
O=c1[nH]nc(Sc2ncc([N+](=O)[O-])s2)n1-c1ccc2c(c1)OCCO2	active

Please let me know the test result on file for CN1CC[C@@H](c2c(O)cc(O)c3c(=O)cc(-c4ccccc4Cl)oc23)[C@@H](O)C1 .
active

Please let me know the test result on file for COc1ccc(-c2cc3c(C)nc(N)nc3n(C3CCC(OCCO)CC3)c2=O)cn1 (centres undefined) .
inactive

Please let me know the test result on file for CC(C)c1cc(-c2n[nH]c(=O)n2-c2ccc3c(ccn3C)c2)c(O)cc1O .
inactive

Please let me know the test result on file for Cc1[nH]nc2ccc(-c3cncc(OC[C@@H](N)Cc4ccccc4)c3)cc12 .
active

Please let me know the test result on file for COc1c(OCCCN2CCOCC2)ccc2c3n(c(=NC(=O)c4cnc(N)nc4)nc12)CCN3 .
active

Please let me know the test result on file for Cc1c(CN2CCN(S(C)(=O)=O)CC2)sc2c(N3CCOCC3)nc(-c3cnc(N)nc3)nc12 .
active

Please let me know the test result on file for Nc1ccccc1NC(=O)c1ccc(CNC(=O)OCc2cccnc2)cc1 .
active

Please let me know the test result on file for CC(=O)Nc1nc(C)c(-c2ccc(Cl)c(S(=O)(=O)NCCO)c2)s1 .
active

Please let me know the test result on file for CNC(=O)c1ccccc1Nc1nc(Nc2ccc(N3CCOCC3)cc2OC)ncc1Cl .
active

Please let me know the test result on file for CN1CCN(c2cc(C(=O)Nc3ccc4c(c3)-c3c(c(C(N)=O)nn3-c3ccc(F)cc3)CC4)c(Cl)cn2)CC1 .
active

----------
Test system: PA-1
Test: Primary qHTS to identify gynecologic anti-cancer compounds using libraries of approved drugs and bioactive compounds (AID 1345084); note: nearly all actives have a fitted effect of over 55% in size; note: potency is the fitted concentration of half-maximal effect
Details: Gynecologic cancer cell panel viability, ATPlite luminescence, 48 h; series mostly up to 57.5 µM
Excerpt: National Center for Advancing Translational Sciences [NCATS] Assay Overview: Chemotherapeutic drug responses vary from cancer to cancer and from patient to patient. […] ATPlite is a luminescence based assay reliant on the conversion of a luciferase substrate to light in the presence of ATP. As a cytotoxic compound will suppress growth and decrease the number of cells, the concentration of ATP will decrease, and less light signal will be detected in the well. […]
Results filed as inconclusive are left out. Activity calls are given as the source filed them. The call rests on the fitted dose curve; in most records, active means well fitted cell-killing curve with a large enough effect; inconclusive means small, poorly fitted or top-dose-only effect, or effect the other way; inactive means flat fitted curve, though single readings scatter.
result-type: Potency

Worked examples, 5 compounds total:
CC(C)c1cc(C(=O)N2Cc3ccc(CN4CCN(C)CC4)cc3C2)c(O)cc1O	501 nM (active)
Cc1cc(Nc2cc(CN3CCOCC3)c3nc(C)c(Cc4ccc(Cl)cc4F)n3n2)n[nH]1	inactive
CC1(C)CC(=O)c2c(C(F)(F)F)nn(-c3ccc(C(N)=O)c(NC4CCC(OC(=O)CN)CC4)c3)c2C1 (centres undefined)	316 nM (active)
Cc1ccc(C(=O)Nc2ccc(CN3CCN(C)CC3)c(C(F)(F)F)c2)cc1C#Cc1cnc2cccnn12	8910 nM (active)
Cc1ccc2nc(NC(=O)CSc3nc4c(c(=O)n3-c3ccccc3)SCC4)sc2c1	inactive

Give the reported Potency for CNC(=O)c1ccc(N2C(=S)N(c3cnc(C#N)c(C(F)(F)F)c3)C(=O)C23CCC3)cc1F (system: PA-1).
inactive

Give the reported Potency for CCc1cc2c(cc1N1CCC(N3CCOCC3)CC1)C(C)(C)c1[nH]c3cc(C#N)ccc3c1C2=O (system: PA-1).
inactive

Give the reported Potency for CCCn1c(=O)c2[nH]c(-c3cnn(Cc4cccc(C(F)(F)F)c4)c3)nc2n(CC)c1=O (system: PA-1).
inactive

Give the reported Potency for CC(C)(C)c1cc(NC(=O)Nc2ccc(-c3cn4c(n3)sc3cc(OCCN5CCOCC5)ccc34)cc2)no1 (system: PA-1).
inactive

----------
test system: ECU; assay: qHTS profiling for inhibitors of Plasmodium falciparum proliferation (AID 504749); note: nearly all actives have a fitted effect of over 60% in size; settings: P. falciparum in erythrocytes, SYBR Green DNA, 72 h; series mostly up to 28.7 µM
Results filed as inconclusive are left out. Activity calls are given as the source filed them. The call rests on the fitted dose curve; in most records, active means well fitted inhibition curve with a large enough effect; inconclusive means small, poorly fitted or top-dose-only effect; inactive means flat fitted curve, though single readings scatter.
# valid calls are true for active, false for inactive; nothing else

CN1c2cc(O)c(N=NC(N)=O)cc2CC1S(=O)(=O)O (configuration not stated)	false
CC1(C)O[C@@H]2C[C@@H]3[C@H]4C[C@@H](F)C5=CC(=O)C=C[C@]5(C)[C@@]4(F)[C@@H](O)C[C@]3(C)[C@]2(C(=O)CO)O1	false
Nc1ccn([C@@H]2CS[C@H](CO)O2)c(=O)n1	false
COC(=O)C1=C(C)NC(C)=C(C(=O)OCCN2CCN(C(c3ccccc3)c3ccccc3)CC2)C1c1cccc([N+](=O)[O-])c1 (configuration not stated)	true
CC[C@H]1CN2CCc3cc(OC)c(OC)cc3[C@H]2C[C@@H]1C[C@@H]1NCCc2cc(OC)c(OC)cc21	true

Please let me know the test result on file for C[C@H]1C[C@@H]2[C@@H]([C@@H](O)C[C@@]3(C)[C@H]2CC[C@]3(O)C(=O)CO)[C@@]2(C)C=CC(=O)C=C12 .
false

Please let me know the test result on file for COc1c(N2C[C@@H]3CCCN[C@H]3C2)c(F)cc2c(=O)c(C(=O)O)cn(C3CC3)c12 .
false

Please let me know the test result on file for CC=CC1=C(C(=O)O)N2C(=O)[C@H](NC(=O)[C@H](N)c3ccc(O)cc3)[C@@H]2SC1 .
false

Please let me know the test result on file for CC(C)(C)NC(=O)[C@H]1CN(Cc2cccnc2)CCN1C[C@@H](O)C[C@@H](Cc1ccccc1)C(=O)N[C@H]1c2ccccc2C[C@H]1O .
true

----------
assay: Quantitative High-Throughput drug screen in 47 multiple myeloma cell lines against the NCATS MIPE library collection: ARD_JJKsccE7 cell viability assay (AID 1918929;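 for viability: 100% = DMSO-only wells and 0% = media-only wells without cells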); settings: ARD myeloma cell line viability, CellTiter-Glo, 48 h; series mostly up to 45.8 µM
Records with an inconclusive call do not appear. The source made the active and inactive calls. The call rests on the fitted dose curve; in most records, active means well fitted cell-killing curve with a large enough effect; inconclusive means small, poorly fitted or top-dose-only effect, or effect the other way; inactive means no such curve, though single readings can be large or run the other way.
# valid calls are YES for active, NO for inactive; nothing else

Please let me know the test result on file for CNC(=O)c1nn(C)c2c1C(C)(C)Cc1cnc(Nc3ccc(N4CCN(C)CC4)cc3)nc1-2 .
YES

Please let me know the test result on file for CN(C)CC(C)(C)CNc1nn2c(-c3ccccc3)nnc2cc1C1CCC1 .
NO

----------
Test system: Tov-21-G
Test: Primary qHTS to identify gynecologic anti-cancer compounds using libraries of approved drugs and bioactive compounds (AID 1345084); note: nearly all actives have a fitted effect of over 55% in size
Details: Gynecologic cancer cell panel viability, ATPlite luminescence, 48 h; series mostly up to 57.5 µM
Description: National Center for Advancing Translational Sciences [NCATS] Assay Overview: Chemotherapeutic drug responses vary from cancer to cancer and from patient to patient. […] ATPlite is a luminescence based assay reliant on the conversion of a luciferase substrate to light in the presence of ATP. As a cytotoxic compound will suppress growth and decrease the number of cells, the concentration of ATP will decrease, and less light signal will be detected in the well. […]
Results filed as inconclusive are left out. Active and inactive are the calls of the source. Calls come from the whole dose curve; as a rule, active = well fitted cell-killing curve with a large enough effect; inconclusive = small, poorly fitted or top-dose-only effect, or effect the other way; inactive = flat fitted curve, though single readings scatter.
# valid calls are active, inactive; nothing else

Cc1cc(Nc2ncnc3ccc(-c4ccc(CNCCS(C)(=O)=O)o4)cc23)ccc1Oc1ccn2ncnc2c1	inactive
CC(C)(O)c1cc2nc(-c3cnc(N)nc3)nc(N3CCOCC3)c2s1	active
CC(C)(C)c1cc(NC(=O)Nc2ccc(-c3cn4c(n3)sc3cc(OCCN5CCOCC5)ccc34)cc2)no1	inactive
COC(=O)Nc1ccc(-c2nc(N3CCOCC3)c3cnn(C4CCN(Cc5cccnc5)CC4)c3n2)cc1	active
CC(=O)SC[C@@H](C)C(=O)N1CCC[C@H]1C(=O)N[C@@H](Cc1ccccc1)C(=O)O	inactive

Please let me know the test result on file for CCc1c2c(nc3ccc(O)cc13)-c1cc3c(c(=O)n1C2)COC(=O)[C@]3(O)CC .
active

Please let me know the test result on file for Cc1c(C)n(Cc2ccc(-c3ccccc3C(=O)O)cc2)c2ccc(C(=O)N[C@@H](C)c3ccc([N+](=O)[O-])cc3)cc12 .
inactive

Please let me know the test result on file for CCCNC(=O)Nc1ccc(Oc2ncnc3cc(OC)c(OC)cc23)cc1Cl .
inactive

Please let me know the test result on file for Cc1cc(Nc2cc(N3CCN(C)CC3)nc(Sc3ccc(NC(=O)C4CC4)cc3)n2)n[nH]1 .
inactive

Please let me know the test result on file for Cc1nc(N)ncc1-c1nc(N2CCOCC2)c2sc(C(C)(C)O)cc2n1 .
active

Please let me know the test result on file for Nc1nccc(Oc2ccc(NC(=O)c3c[nH]cc(-c4ccc(F)cc4)c3=O)cc2F)c1Cl .
inactive

Please let me know the test result on file for COc1cc(Nc2ncc(F)c(Nc3ccc4c(n3)N(COP(=O)(O)O)C(=O)C(C)(C)O4)n2)cc(OC)c1OC .
active

Please let me know the test result on file for CC(O)C1C(=O)N2C(C(=O)O)=C(SC3CNC(C(=O)N(C)C)C3)C(C)C12 (configuration not stated) .
inactive

Please let me know the test result on file for CN(C)Cc1c(C(=O)NCCOc2ccc(C(=O)NO)cc2)oc2ccccc12 .
active

Please let me know the test result on file for Clc1cccc(-n2nnnc2NCc2ccccc2Oc2ccccn2)c1Cl .
inactive
